The following compounds are shown together with reported AC50 values.
Target: Pyruvate kinase PKLR (Homo sapiens, UniProt P30613, R510Q)
Sequence (P30613 whole entry R510Q): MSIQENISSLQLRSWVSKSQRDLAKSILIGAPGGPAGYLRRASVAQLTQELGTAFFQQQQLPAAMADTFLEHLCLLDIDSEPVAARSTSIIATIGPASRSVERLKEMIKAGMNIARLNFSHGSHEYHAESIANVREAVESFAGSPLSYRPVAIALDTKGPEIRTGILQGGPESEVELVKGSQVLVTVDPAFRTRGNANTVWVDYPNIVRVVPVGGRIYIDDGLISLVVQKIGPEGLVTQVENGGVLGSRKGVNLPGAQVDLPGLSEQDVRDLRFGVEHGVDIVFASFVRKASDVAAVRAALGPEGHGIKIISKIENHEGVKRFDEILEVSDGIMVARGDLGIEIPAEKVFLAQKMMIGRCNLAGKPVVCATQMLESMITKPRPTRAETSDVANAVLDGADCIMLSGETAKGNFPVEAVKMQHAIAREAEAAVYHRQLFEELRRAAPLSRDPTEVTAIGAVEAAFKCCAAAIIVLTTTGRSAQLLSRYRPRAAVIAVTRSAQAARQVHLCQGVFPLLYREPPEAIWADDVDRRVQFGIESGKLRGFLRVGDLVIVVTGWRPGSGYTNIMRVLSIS
Experiment: Activation of PKR R510Q mutant (unknown origin) incubated for 60 mins in presence of ADP, PEP and NADH by Spectraax microplate reader based assay

Previously resolved entries follow.
O=C1NCCC1CC1(O)CCN(C(=O)c2ccc(NS(=O)(=O)c3cccc4nccnc34)cc2)CC1 (configuration not stated)
> 10000 nM
CC1(O)CCC(C2(O)CCN(C(=O)c3ccc(NS(=O)(=O)c4cccc5scnc45)cc3)CC2)CC1 (configuration not stated)
≥ 1010 nM
COc1cccnc1C1(O)CCN(C(=O)c2ccc(NS(=O)(=O)c3cccc4cccnc34)cc2)CC1
> 10000 nM
CC(C)CC1(O)CCN(C(=O)c2ccc(NS(=O)(=O)c3cccc4ccc(N)nc34)cc2)CC1
< 100 nM
O=C(c1ccc(NS(=O)(=O)c2cccc3c(O)ncnc23)cc1)N1CCC(O)(CCCC(F)(F)F)CC1
< 100 nM
O=C(c1ccc(NS(=O)(=O)c2cccc3cccnc23)cc1)N1CCC(O)(Cc2c(F)cccc2F)CC1
< 100 nM

Query :: Could you share which AC50 value was measured for O=C(c1ccc(NS(=O)(=O)c2cccc3nccnc23)cc1)N1CCC(O)(CCCC(F)(F)F)CC1 ?
Result :: < 100 nM

Query :: # get_value(readout='AC50', item= CCc1ccccc1C1(O)CCN(C(=O)c2ccc(NS(=O)(=O)c3cccc4cccnc34)cc2)CC1 )
Result :: < 100 nM

Query :: Form field: reported AC50 of CC(C)CC1(OP(=O)(O)O)CCN(C(=O)c2ccc(NS(=O)(=O)c3cccc4nccnc34)cc2)CC1
Result :: > 10000 nM

Query :: Fill in: AC50 of CC(F)(F)CCC1(O)CCN(C(=O)c2ccc(NS(=O)(=O)c3cc(F)cc4sc(N)nc34)cc2)CC1 is ___
Result :: < 100 nM

Query :: What AC50 value was documented for this compound, O=C(c1ccc(NS(=O)(=O)c2cccc3cccnc23)cc1)N1CCC(O)(Cc2cccc(F)c2)CC1 ?
Result :: < 100 nM

Query :: Suppose we examine the compound O=C(c1ccc(NS(=O)(=O)c2cccc3cccnc23)cc1OC(F)(F)F)N1CCC(O)(c2ccccc2Cl)CC1 ; what AC50 value has been reported?
Result :: < 100 nM

Query :: Could you tell me which AC50 is on file for O=C(c1ccc(NS(=O)(=O)c2cccc3cccnc23)cc1)N1CCC(O)(c2ccccc2OC(F)(F)F)CC1 ?
Result :: < 100 nM

Query :: Form field: reported AC50 of O=C(c1ccc(NS(=O)(=O)Cc2ccccn2)cc1)N1CCC(O)(c2ccccc2Cl)CC1
Result :: > 10000 nM

Query :: What does the data say about its AC50? Entry: O=C(c1ccc(NS(=O)(=O)c2cccc3cccnc23)cc1)N1CCC(O)(CC2CC2)CC1
Result :: < 100 nM

---

Entries and their measured AC50 follow.
Target: Pyruvate kinase PKLR (Homo sapiens, UniProt P30613, R532W)
Sequence (P30613 whole entry R532W): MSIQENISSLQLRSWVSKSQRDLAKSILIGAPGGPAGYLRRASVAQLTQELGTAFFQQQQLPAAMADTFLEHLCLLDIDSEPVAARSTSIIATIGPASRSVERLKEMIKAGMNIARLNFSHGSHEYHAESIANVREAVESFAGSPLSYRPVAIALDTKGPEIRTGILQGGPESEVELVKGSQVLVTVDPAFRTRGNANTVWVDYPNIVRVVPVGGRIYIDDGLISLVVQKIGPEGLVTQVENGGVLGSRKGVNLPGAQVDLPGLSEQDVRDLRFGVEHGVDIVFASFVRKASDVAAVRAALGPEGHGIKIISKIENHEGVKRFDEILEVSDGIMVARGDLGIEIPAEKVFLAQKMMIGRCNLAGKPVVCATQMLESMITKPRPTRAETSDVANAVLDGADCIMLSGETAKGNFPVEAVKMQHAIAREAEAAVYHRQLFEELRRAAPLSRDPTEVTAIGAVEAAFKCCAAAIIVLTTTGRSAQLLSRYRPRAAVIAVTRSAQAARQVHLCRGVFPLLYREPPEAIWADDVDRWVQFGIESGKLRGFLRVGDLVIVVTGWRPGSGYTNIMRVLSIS
Experiment: Activation of PKR R532W mutant (unknown origin) incubated for 60 mins in presence of ADP, PEP and NADH by Spectraax microplate reader based assay

CC(C)CC1(OP(=O)(O)O)CCN(C(=O)c2ccc(NS(=O)(=O)c3cccc4scnc34)cc2)CC1
> 10000 nM
Cc1noc(C)c1CC1(O)CCN(C(=O)c2ccc(NS(=O)(=O)c3cccc4scnc34)cc2)CC1
< 100 nM
O=C(c1ccc(NS(=O)(=O)c2cccc3cccnc23)cc1)N1CCC(O)(c2ccncc2)CC1
< 100 nM
CCOCC1(O)CCN(C(=O)c2ccc(NS(=O)(=O)c3cccc4cccnc34)cc2)CC1
< 100 nM
Cn1nccc1CC1(O)CCN(C(=O)c2ccc(NS(=O)(=O)c3cccc4scnc34)cc2)CC1
< 100 nM
Cc1cc(NS(=O)(=O)c2cccc3cccnc23)ccc1C(=O)N1CCC(O)(c2ccccc2Cl)CC1
< 100 nM
Cc1nscc1CC1(O)CCN(C(=O)c2ccc(NS(=O)(=O)c3cccc4scnc34)cc2)CC1
< 100 nM
Cc1cc(C(=O)N2CCC(O)(c3cccc(F)c3F)CC2)ccc1NS(=O)(=O)c1cccc2nccnc12
< 100 nM

Query :: Any idea what its AC50 is? The compound is CC(C)CC1(O)CCN(C(=O)c2ccc(NS(=O)(=O)c3cnc(O)c4cccnc34)cc2)CC1
Result :: > 10000 nM

---

Biological target: Pyruvate kinase PKLR (Homo sapiens, UniProt P30613, R510Q)
Assay: Activation of PKR R510Q mutant (unknown origin) incubated for 60 mins in presence of ADP, PEP and NADH by Spectraax microplate reader based assay
resultType: AC50

Worked set:
O=C(c1ccc(NS(=O)(=O)c2cccc3scnc23)cc1)N1CCC(O)(/C=C/CC(F)(F)F)CC1
< 100 nM
CCn1cc(CC2(O)CCN(C(=O)c3ccc(NS(=O)(=O)c4cccc5nccnc45)cc3)CC2)cn1
> 10000 nM
Nc1cnc2c(S(=O)(=O)Nc3ccc(C(=O)N4CCC(O)(c5cccc(F)c5F)CC4)cc3)cccc2n1
< 100 nM
O=C(c1ccc(NS(=O)(=O)c2cccc3cccnc23)cc1)N1CCC(O)(c2ccccc2C(F)(F)F)CC1
< 100 nM

Query :: Tell me the measured AC50 of CC1(O)CCN(C(=O)c2ccc(NS(=O)(=O)c3cccc4cccnc34)cc2)CC1 , please.
Result :: > 10000 nM

Query :: Returns the measured AC50 for the input compound. Input: CC(C)CC1(O)CCN(C(=O)c2ccc(NS(=O)(=O)c3cccc4nc(N)cnc34)cc2)CC1
Result :: < 100 nM

Query :: Which measured AC50 value corresponds to CC(C)CC1(O)CCN(C(=O)c2ccc(NS(=O)(=O)c3c(F)ccc4ncsc34)cc2)CC1 ?
Result :: > 10000 nM

---

Target: Pyruvate kinase PKLR (Homo sapiens, UniProt P30613, R510Q)
Assay: Activation of PKR R510Q mutant (unknown origin) incubated for 60 mins in presence of ADP, PEP and NADH by Spectraax microplate reader based assay
resultType: AC50

O=C(c1ccc(NS(=O)(=O)c2c(F)ccc3ncsc23)cc1)N1CCC(O)(c2ccccc2Cl)CC1
> 10 µM

Query :: GET /values?readout=AC50&item= CS(=O)(=O)CCC1(O)CCN(C(=O)c2ccc(NS(=O)(=O)c3cccc4nccnc34)cc2)CC1
Result :: > 10 µM

Query :: What does the record list as AC50 for O=C(c1ccc(NS(=O)(=O)c2cccc3ccnnc23)cc1)N1CCC(O)(c2ccccc2Cl)CC1 ?
Result :: > 10 µM

Query :: Given the compound COc1ccccc1CC1(O)CCN(C(=O)c2ccc(NS(=O)(=O)c3cccc4cccnc34)cc2)CC1 , what is its reported AC50?
Result :: < 0.1 µM

Query :: I would be grateful if you could share the reported AC50 for CC1(O)CCC(C2(O)CCN(C(=O)c3ccc(NS(=O)(=O)c4cccc5nccnc45)cc3)CC2)CC1 (configuration not stated) .
Result :: ≤ 1 µM

Query :: Entry COc1cc(NS(=O)(=O)c2cccc3cccnc23)ccc1C(=O)N1CCC(O)(Cc2ccccc2)CC1 : reported AC50 = ?
Result :: < 0.1 µM

Query :: // AC50 lookup, key: Nc1nc2c(S(=O)(=O)Nc3ccc(C(=O)N4CCC(O)(c5ccccc5Cl)CC4)cc3)cccc2s1
Result :: < 0.1 µM

Query :: Which AC50 is listed for COc1nc(C(=O)N2CCC(O)(c3ccccc3)CC2)ccc1NS(=O)(=O)c1cccc2cccnc12 ?
Result :: > 10 µM

Query :: Query (compound): CC(C)CC1(O)CCN(C(=O)c2ccc(NS(=O)(=O)c3cnc(O)c4cccnc34)cc2)CC1 ; field requested: AC50
Result :: > 10 µM

Query :: Fill blank: measured AC50 of the compound O=C(c1ccc(NS(=O)(=O)c2c[nH]c3cccnc23)cc1)N1CCC(O)(c2ccccc2Cl)CC1 is ____.
Result :: > 10 µM

Query :: I am curious: what AC50 value has been reported for O=C(c1ccc(NS(=O)(=O)c2cccc3c2OC(F)(F)O3)cc1)N1CCC(O)(c2ccccc2Cl)CC1 ?
Result :: > 10 µM

Query :: Fill in the blank: the reported AC50 of Cn1ccc(CC2(O)CCN(C(=O)c3ccc(NS(=O)(=O)c4cccc5nccnc45)cc3)CC2)n1 is ____.
Result :: > 10 µM

Query :: Requested read-out: AC50. Entry: CC(C)CC1(O)CCN(C(=O)c2ccc(NS(=O)(=O)c3cccc4cccnc34)cc2)CC1
Result :: < 0.1 µM

---

Recorded AC50 values for a group of compounds are listed next.
Target: Pyruvate kinase PKLR (Homo sapiens, UniProt P30613, R510Q)
Assay: Activation of PKR R510Q mutant (unknown origin) incubated for 60 mins in presence of ADP, PEP and NADH by Spectraax microplate reader based assay

O=C(c1ccc(NS(=O)(=O)c2cccc3c2OCC3)cc1)N1CCC(O)(c2ccccc2Cl)CC1
> 10 µM
O=C(c1ccc(NS(=O)(=O)c2ccccc2Cl)cc1)N1CCC(O)(Cc2ccccc2)CC1
≤ 1 µM
Cc1cc(C(=O)N2CCC(O)(c3ccccc3Cl)CC2)ccc1NS(=O)(=O)c1cccc2cccnc12
< 0.1 µM
O=C(c1ccc(NS(=O)(=O)c2ccc(F)c3nccnc23)cc1)N1CCC(O)(c2cccc(F)c2F)CC1
≤ 1 µM
O=C(c1ccc(NS(=O)(=O)c2cccc3[nH]cnc23)cc1)N1CCC(O)(c2ccccc2Cl)CC1
> 10 µM
O=C1NCCC1CC1(O)CCN(C(=O)c2ccc(NS(=O)(=O)c3cccc4scnc34)cc2)CC1 (stereo not drawn)
> 10 µM
CS(=O)(=O)CCC1(O)CCN(C(=O)c2ccc(NS(=O)(=O)c3cccc4scnc34)cc2)CC1
> 10 µM
O=C(c1ccc(N[S+]([O-])c2cccc3cccnc23)cc1)N1CCC(O)(c2ccccc2Cl)CC1 (stereo not drawn)
> 10 µM
CC1(CC2(O)CCN(C(=O)c3ccc(NS(=O)(=O)c4cccc5scnc45)cc3)CC2)CC1
< 0.1 µM
Cc1cc(F)ccc1C1(O)CCN(C(=O)c2ccc(NS(=O)(=O)c3cccc4cccnc34)cc2)CC1
< 0.1 µM

Query :: Given the compound O=C(c1ccc(NS(=O)(=O)c2ccc(F)c3cccnc23)cc1)N1CCC(O)(Cc2ccccc2F)CC1 , what is its reported AC50?
Result :: < 0.1 µM

Query :: Entry CC(CC1(O)CCN(C(=O)c2ccc(NS(=O)(=O)c3cccc4c(O)ncnc34)cc2)CC1)C(F)(F)F (stereo not drawn) has what AC50?
Result :: < 0.1 µM

Query :: Any idea what its AC50 is? The compound is CCCCC1(O)CCN(C(=O)c2ccc(NS(=O)(=O)c3cccc4cccnc34)cc2)CC1
Result :: < 0.1 µM

Query :: Which AC50 value belongs to O=C(c1ccc(NS(=O)(=O)c2cccc3cccnc23)cc1F)N1CCC(O)(Cc2ccccc2)CC1 ?
Result :: < 0.1 µM

Query :: Given O=C(c1ccc(NS(=O)(=O)c2cccc3nccnc23)cc1)N1CCC(O)(Cc2ccccc2C(F)(F)F)CC1 , state its recorded AC50.
Result :: < 0.1 µM

Query :: Item under review: O=C(c1ccc(NS(=O)(=O)c2cccc3cccnc23)cc1)N1CCC(O)(c2ccc(F)cc2Cl)CC1 . Reported AC50?
Result :: < 0.1 µM

Query :: For the compound Nc1nc(CC2(O)CCN(C(=O)c3ccc(NS(=O)(=O)c4cccc5scnc45)cc3)CC2)cs1 , what AC50 is on record?
Result :: > 10 µM

Query :: Please report the recorded AC50 for Cc1nc(F)ccc1C1(O)CCN(C(=O)c2ccc(NS(=O)(=O)c3cccc4cccnc34)cc2)CC1 .
Result :: < 0.1 µM
